target: full-length human PRMT8 isoform 1 (Homo sapiens, UniProt Q9NR22); assay: PRMT8 biochemical assay (3H-SAM Flashplate, histone H4 31-45 peptide); details: 1.5 nM PRMT8, 30 min preincubation, 150 nM peptide
Sequence (Q9NR22 whole entry, canonical isoform): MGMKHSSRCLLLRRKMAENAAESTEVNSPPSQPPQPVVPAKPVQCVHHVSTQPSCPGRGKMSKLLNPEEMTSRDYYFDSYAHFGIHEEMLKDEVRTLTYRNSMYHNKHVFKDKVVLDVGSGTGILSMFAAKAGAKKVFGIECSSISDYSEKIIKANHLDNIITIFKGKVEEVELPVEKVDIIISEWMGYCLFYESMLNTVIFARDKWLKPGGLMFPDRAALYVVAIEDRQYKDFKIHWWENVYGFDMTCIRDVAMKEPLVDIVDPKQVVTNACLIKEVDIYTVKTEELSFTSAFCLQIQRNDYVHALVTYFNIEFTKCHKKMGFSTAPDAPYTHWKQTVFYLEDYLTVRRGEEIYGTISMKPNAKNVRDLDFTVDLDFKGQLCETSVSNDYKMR
pIC50: −log10 of the molar value. Where a name gives a salt, the structure may show the parent alone.
Reported pIC50 values are given for each entry in this list.
RESULT_TYPE: pIC50

{"MOLECULE": "CNCCN(C)Cc1nccn1[C@H]1CC[C@]2(CC1)CC(C)(C)CO2", "RESULT_TYPE": "pIC50", "VALUE_OPERATOR": "=", "RECORDED_VALUE": 5.93}
{"MOLECULE": "CNCCN(C)Cc1c[nH]nc1C1CCC(C)(C)[C@H](OCC(C)C)C1 (some centres unmarked)", "RESULT_TYPE": "pIC50", "VALUE_OPERATOR": "=", "RECORDED_VALUE": 7.61}
{"MOLECULE": "CNCCN(C)Cc1nnc(C)n1[C@H]1CC[C@@]2(CC1)CC(C)(C)CO2", "RESULT_TYPE": "pIC50", "VALUE_OPERATOR": "=", "RECORDED_VALUE": 5.36}
{"MOLECULE": "CN(CCN)Cc1nn(C)cc1[C@H]1CC[C@@]2(CC1)CC(C)(C)CO2", "RESULT_TYPE": "pIC50", "VALUE_OPERATOR": "=", "RECORDED_VALUE": 7.92}
{"MOLECULE": "CNCCN(C)Cc1c[nH]nc1[C@H]1CC[C@H](COCC(F)(F)F)CC1", "RESULT_TYPE": "pIC50", "VALUE_OPERATOR": "=", "RECORDED_VALUE": 7.74}
{"MOLECULE": "CNCCN(C)Cc1nnc(C)n1[C@H]1CC[C@]2(CC1)CC(C)(C)CO2", "RESULT_TYPE": "pIC50", "VALUE_OPERATOR": "<", "RECORDED_VALUE": 5.00}
{"MOLECULE": "CCOCC1(COCC)CC=C(c2n[nH]cc2CN(C)CCNC)CC1", "RESULT_TYPE": "pIC50", "VALUE_OPERATOR": "=", "RECORDED_VALUE": 7.65}
{"MOLECULE": "CNCCN(C)Cc1c[nH]nc1[C@@H]1CC[C@@H](OCCCOC)C2(CCCC2)C1 (racemic)", "RESULT_TYPE": "pIC50", "VALUE_OPERATOR": "=", "RECORDED_VALUE": 7.17}
{"MOLECULE": "CCOCC1(COCC)CCC(c2n[nH]cc2CN(C)CCN(C)C)CC1", "RESULT_TYPE": "pIC50", "VALUE_OPERATOR": "=", "RECORDED_VALUE": 7.24}
{"MOLECULE": "CNCCNCc1c[nH]nc1[C@H]1CC[C@@]2(CC1)CC(C)(C)CO2", "RESULT_TYPE": "pIC50", "VALUE_OPERATOR": "=", "RECORDED_VALUE": 7.68}
{"MOLECULE": "CCOC[C@@H]1CC(c2n[nH]cc2CN(C)CCNC)CCC1(C)C (some centres unmarked)", "RESULT_TYPE": "pIC50", "VALUE_OPERATOR": "=", "RECORDED_VALUE": 6.49}
{"MOLECULE": "CCOCCOCC1(COCCOCC)CCC(c2n[nH]cc2CN(C)CCNC)CC1", "RESULT_TYPE": "pIC50", "VALUE_OPERATOR": "=", "RECORDED_VALUE": 6.86}
{"MOLECULE": "CNCCN(C)Cc1n[nH]cc1[C@H]1CC[C@]2(CC1)CC(C)(C)CO2", "RESULT_TYPE": "pIC50", "VALUE_OPERATOR": "=", "RECORDED_VALUE": 7.50}
{"MOLECULE": "CCC1CC(c2n[nH]cc2CN(C)CCNC)CC(C(=O)NCCOC)C1(C)C (centres unmarked) [compound 21, dihydrochloride]", "RESULT_TYPE": "pIC50", "VALUE_OPERATOR": "=", "RECORDED_VALUE": 6.21}
{"MOLECULE": "CNCCN(C)Cc1scnc1[C@H]1CC[C@@]2(CC1)CC(C)(C)CO2", "RESULT_TYPE": "pIC50", "VALUE_OPERATOR": "=", "RECORDED_VALUE": 8.04}
{"MOLECULE": "CNCCN(C)Cc1cncn1[C@H]1CC[C@@]2(CC1)CC(C)(C)CO2", "RESULT_TYPE": "pIC50", "VALUE_OPERATOR": "=", "RECORDED_VALUE": 7.80}
{"MOLECULE": "CNCCN(C)Cc1c[nH]nc1C1CCC2(CCC(OC)CC2)CC1 (centres unmarked)", "RESULT_TYPE": "pIC50", "VALUE_OPERATOR": "=", "RECORDED_VALUE": 7.95}
{"MOLECULE": "CNCCN(C)Cc1c[nH]nc1[C@H]1CC[C@]2(CCCCO2)CC1 [compound 127, bistrifluoroacetic acid salt]", "RESULT_TYPE": "pIC50", "VALUE_OPERATOR": "=", "RECORDED_VALUE": 7.79}
{"MOLECULE": "CNCCN(C)Cc1nccn1[C@H]1CC[C@@]2(CC1)CC(C)(C)CO2", "RESULT_TYPE": "pIC50", "VALUE_OPERATOR": "=", "RECORDED_VALUE": 6.56}
{"MOLECULE": "CCOCC1(COCC)CCC(c2n[nH]cc2CN(C)CCN)CC1", "RESULT_TYPE": "pIC50", "VALUE_OPERATOR": "=", "RECORDED_VALUE": 8.02}
{"MOLECULE": "CN(C)CCN(C)Cc1c[nH]nc1[C@H]1CC[C@]2(CC1)CC(C)(C)CO2", "RESULT_TYPE": "pIC50", "VALUE_OPERATOR": "=", "RECORDED_VALUE": 7.01}
{"MOLECULE": "CNCCN(C)Cc1c[nH]nc1[C@H]1CC[C@@H](COCC(F)(F)F)CC1", "RESULT_TYPE": "pIC50", "VALUE_OPERATOR": "=", "RECORDED_VALUE": 7.04}
{"MOLECULE": "CNCCN(C)Cc1sc(C)nc1[C@H]1CC[C@]2(CC1)CC(C)(C)CO2", "RESULT_TYPE": "pIC50", "VALUE_OPERATOR": "=", "RECORDED_VALUE": 7.36}
{"MOLECULE": "CNCCN(C)Cc1nn(C)cc1[C@H]1CC[C@]2(CC1)CC(C)(C)CO2", "RESULT_TYPE": "pIC50", "VALUE_OPERATOR": "=", "RECORDED_VALUE": 7.37}
{"MOLECULE": "CNCCN(C)Cc1sc(C)nc1[C@H]1CC[C@@]2(CC1)CC(C)(C)CO2", "RESULT_TYPE": "pIC50", "VALUE_OPERATOR": "=", "RECORDED_VALUE": 7.47}
{"MOLECULE": "CNCCN(C)Cc1c(C)[nH]nc1[C@H]1CC[C@]2(CC1)CC(C)(C)CO2", "RESULT_TYPE": "pIC50", "VALUE_OPERATOR": "=", "RECORDED_VALUE": 7.26}
{"MOLECULE": "CNCCN(C)Cc1nn[nH]c1[C@H]1CC[C@]2(CC1)CC(C)(C)CO2", "RESULT_TYPE": "pIC50", "VALUE_OPERATOR": "=", "RECORDED_VALUE": 6.86}
{"MOLECULE": "CNCCN(C)Cc1nocc1[C@H]1CC[C@@]2(CC1)CC(C)(C)CO2", "RESULT_TYPE": "pIC50", "VALUE_OPERATOR": "=", "RECORDED_VALUE": 7.39}
{"MOLECULE": "CNCCN(C)Cc1c[nH]nc1C1=CCC(COCC(F)(F)F)CC1 (centres unmarked)", "RESULT_TYPE": "pIC50", "VALUE_OPERATOR": "=", "RECORDED_VALUE": 7.58}
{"MOLECULE": "CCOCC1(COCC)CCC(c2nn(C)cc2CN(C)CCNC)CC1", "RESULT_TYPE": "pIC50", "VALUE_OPERATOR": "=", "RECORDED_VALUE": 7.55}
{"MOLECULE": "CNCCN(C)Cc1c[nH]nc1[C@H]1CC[C@]2(CCN(CCC(C)C)C2=O)CC1", "RESULT_TYPE": "pIC50", "VALUE_OPERATOR": "=", "RECORDED_VALUE": 6.98}
{"MOLECULE": "CN(CCN)Cc1c[nH]nc1[C@H]1CC[C@@]2(CC1)CC(C)(C)CO2", "RESULT_TYPE": "pIC50", "VALUE_OPERATOR": "=", "RECORDED_VALUE": 8.04}
{"MOLECULE": "CCCOCC1(COCCC)CCC(c2n[nH]cc2CN(C)CCNC)CC1", "RESULT_TYPE": "pIC50", "VALUE_OPERATOR": "=", "RECORDED_VALUE": 7.91}
{"MOLECULE": "CNCCNCc1c[nH]nc1[C@H]1CC[C@]2(CC1)CC(C)(C)CO2", "RESULT_TYPE": "pIC50", "VALUE_OPERATOR": "=", "RECORDED_VALUE": 6.59}
{"MOLECULE": "CNCCN(C)Cc1nn(C)cc1[C@H]1CC[C@@]2(CC1)CC(C)(C)CO2", "RESULT_TYPE": "pIC50", "VALUE_OPERATOR": "=", "RECORDED_VALUE": 7.51}

Cited source for all entries: patent US20170291905A1
